Measured values drawn from paper PMC10397247 for this set.

- targetSystem: T1, 4H3340-AA
- T1 chain: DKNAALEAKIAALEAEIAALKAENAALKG
- protocolDetails: two-hybrid library CCmax;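 further: natural log of median RNA to DNA barcode read ratio; higher means stronger binding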
- testContext: mean of both orientations
Measured interaction score of individual entries
observationType: interaction score

# binder, testResult
rows = [
    ("DENAALKAEIAALKAKIAALEAKNAALEG [4H1639-AA]", -1.63),
    ("DKIAALEAENAALEAKIAALKAENAALEG [4H2219-AA]", -1.39),
    ("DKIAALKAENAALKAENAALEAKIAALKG [4H2774-AA]", -1.59),
    ("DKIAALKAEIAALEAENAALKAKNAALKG [4H2592-AA]", 0.143),
    ("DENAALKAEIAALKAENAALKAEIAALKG [4H1626-AA]", -1.43),
    ("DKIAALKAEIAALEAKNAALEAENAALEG [4H2611-AA]", -1.49),
    ("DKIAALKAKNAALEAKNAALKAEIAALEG [4H3001-AA]", -1.44),
    ("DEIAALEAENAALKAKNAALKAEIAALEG [4H249-AA]", -1.45),
    ("DENAALKAENAALKAEIAALKAEIAALKG [4H1738-AA]", -1.31),
]
